Each recorded value in this set is attributed to patent US10584115B2.

# Tested on: Bmi-1 protein
# Procedure Text: Sandwich ELISA Assay (Bmi-1 protein level in HT-1080 cells after compound treatment)
# Assay type: cell-based
# Measurement Setup: read-out: ELISA EC50 value for Bmi-1 protein, Table 1, Bmi-1 sandwich ELISA
Attribute Measured: EC50

// below: answered compounds
>>> observed_measurement("FC(F)(F)c1ccc(Nc2cccc(-c3c(C(F)(F)F)nc4ccccn34)n2)cc1")
"1 to 10 nM"
>>> observed_measurement("Cc1nn(CCn2ncnn2)c(C)c1-c1cncc(Nc2ccc(C(F)(F)F)cc2)n1")
"1 to 10 nM"
>>> observed_measurement("Cc1nn(CC(F)(F)F)c(C)c1-c1cncc(Nc2ccc(C(F)(F)F)cc2)n1")
"1 to 10 nM"

Lab book: EC50 of `FC(F)(F)c1ccc(Nc2cncc(-c3c(C4CC4)nc4ccc(C(F)(F)F)cn34)n2)cc1` noted as 10 to 100 nM

Lab book: EC50 of `Cc1nc2ccc(F)cn2c1-c1cncc(Nc2ccccc2)n1` noted as 10 to 100 nM

====

melting point for assorted compounds

>>> observed_measurement("N#Cc1cc(Nc2ccc(C(F)(F)F)cc2)nc(-c2c(C3CC3)nc3ccc(F)cn23)c1 [compound 346]")
"245 to 247 °C"
>>> observed_measurement("Cc1nc2ccc(F)cn2c1-c1cc(C#N)cc(Nc2ccc(C(F)(F)F)c(F)c2)n1 [compound 312]")
"245 to 249 °C"
>>> observed_measurement("CCS(=O)(=O)n1nc(C)c(-c2cncc(Nc3ccc(C(F)(F)F)cc3)n2)c1C [compound 176]")
"70 to 71 °C"

Lab book: melting point of FC(F)(F)c1ccc(Nc2cncc(-c3c(C4CCC4)nc4ccccn34)n2)cc1 [compound 131] noted as 218 to 219 °C

Lab book: melting point of Fc1ccc2nc(C3CCC3)n(-c3cncc(Nc4ccc(C(F)(F)F)cc4)n3)c2c1 [compound 485] noted as 289 to 291 °C

Lab book: melting point of Cc1nc2ccc(F)cn2c1-c1cc(C#N)cc(Nc2ccc(OC(F)(F)F)cc2)n1 [compound 249] noted as 209 to 210 °C

Lab book: melting point of CCc1nc2ccc(F)cc2n1-c1cncc(Nc2ccc(OC(F)F)cc2)n1 [compound 260] noted as 205 to 207 °C

Lab book: melting point of Cc1cc(Nc2cc(C#N)cc(-c3c(C)nc4c(F)cc(F)cn34)n2)cnc1OC(F)F [compound 471] noted as 236 to 238 °C

Lab book: melting point of CCOC(=O)n1nc(C)c(-c2cncc(Nc3ccc(C(F)(F)F)cc3)n2)c1C [compound 278] noted as 122 to 123 °C

Lab book: melting point of Cc1cn2c(-c3cncc(Nc4ccc(OC(F)F)cc4)n3)c(C)nc2c(C)n1 [compound 489] noted as 140 to 141 °C

Lab book: melting point of CCc1nc2ccc(F)cc2n1-c1cncc(Nc2ccc(C(F)(F)F)cc2)n1 [compound 259] noted as 267 to 269 °C

Lab book: melting point of Cc1cccc(Nc2cncc(-n3c(C)nc4ccc(F)cc43)n2)c1 [compound 560] noted as 173 to 174 °C

Lab book: melting point of CCc1nc(C)cn1-c1cncc(Nc2ccc(C(F)(F)F)cc2)n1 [compound 179] noted as 207 to 208 °C

Lab book: melting point of Cc1nn(C)c(C)c1-c1cc(C#N)cc(Nc2ccc(OC(F)F)cc2)n1 [compound 264] noted as 144 to 145 °C

Lab book: melting point of Cc1nc2ccc(F)cn2c1-c1cncc(Nc2ccccc2)n1 [compound 590] noted as 216 to 218 °C

Lab book: melting point of Fc1cc(F)c2nc(C3CC3)n(-c3cncc(Nc4ccc(C(F)(F)F)cc4)n3)c2c1 [compound 461] noted as 247 to 249 °C

Lab book: melting point of FC(F)Oc1ccc(Nc2cncc(-c3c(C4CC4)nc4ccccn34)n2)cc1 [compound 130] noted as 208 to 210 °C

Lab book: melting point of CCc1nc2ccc(F)cc2n1-c1cncc(Nc2ccc(Cl)cc2)n1 [compound 623] noted as 252 to 255 °C

Lab book: melting point of Cc1nn(Cc2cccnc2)c(C)c1-c1cncc(Nc2ccc(C(F)(F)F)cc2)n1 [compound 402] noted as 47 to 48 °C

Lab book: melting point of Cc1nc2ccc(F)cc2n1-c1cncc(Nc2ccc(C#N)cc2)n1 [compound 555] noted as 300 to 303 °C

Lab book: melting point of CCc1nc2ccc(F)cc2n1-c1cncc(Nc2ccc(C)cc2)n1 [compound 622] noted as 223 to 226 °C

Lab book: melting point of Cc1nc2ccc(F)cn2c1-c1cc(C#N)cc(Nc2ccc(Cl)cc2)n1 [compound 647] noted as 148 to 151 °C

Lab book: melting point of Fc1ccc2nc(C3CC3)c(-c3cncc(Nc4ccc(OC(F)F)cc4)n3)n2c1 [compound 337] noted as 183 to 185 °C

====

Attribute Measured: melting point

// below: answered compounds
>>> observed_measurement("Fc1ccc2c(c1)nc(C1CC1)n2-c1cncc(Nc2ccc(OC(F)F)cc2)n1")
"188 to 190 °C"
>>> observed_measurement("Cc1nn(C)c(C)c1-c1cccc(Nc2ccc(C(F)(F)F)cc2)n1")
"48 to 50 °C"
>>> observed_measurement("N#Cc1cc(Nc2ccc(OC(F)F)nc2)nc(-n2c(C3CC3)nc3c(F)cc(F)cc32)c1")
"207 to 209 °C"

Lab book: melting point of `Fc1ccc2nc(C(F)F)c(-c3cncc(Nc4ccc(OC(F)F)nc4)n3)n2c1` noted as 225 to 227 °C

Lab book: melting point of `Cc1c(-c2cncc(Nc3ccc(OC(F)(F)F)cc3)n2)c(C(F)(F)F)nn1C` noted as 157 to 158 °C

====

# Test system: Bmi-1 protein
# Procedure Text: Sandwich ELISA Assay (Bmi-1 protein level in HT-1080 cells after compound treatment)
# Format: cell-based
# Measurement Setup: read-out: ELISA EC50 value for Bmi-1 protein, Table 1, Bmi-1 sandwich ELISA
# Method: Cell Seeding and Compound Treatment (Day 1): HT-1080 cells were seeded at 8000 cells/well (50 μL) in 96-well tissue culture plates. […] The plate was washed and blotted dry, then a previously prepared TMB substrate (TMB substrate kit, Pierce catalog #34021) (prepared by mixing kit reagents 1:1) (100 μL) was added per well. […] The plates were read at OD450 (experimental) and OD570 (reference).
Attribute Measured: EC50

>>> observed_measurement("Cc1nc2c(F)cc(F)cn2c1-c1cncc(Nc2ccc(C(F)(F)F)cc2)n1 [compound 254]")
"1 to 10 nM"
>>> observed_measurement("FC(F)(F)c1ccc(Nc2cncc(-c3cnc4ccccn34)n2)cc1 [compound 235]")
"100 to 3000 nM"
>>> observed_measurement("Cc1nc2ccc(F)cn2c1-c1cc(N)cc(Nc2ccc(C(F)(F)F)cc2)n1 [compound 316]")
"1 to 10 nM"
>>> observed_measurement("Cc1nc2ccccc2n1-c1cc(C(N)=O)cc(Nc2ccc(C(F)(F)F)cc2)n1 [Cpd 203]")
"100 to 3000 nM"

Let me check: NC(=O)c1cc(Nc2ccc(C(F)(F)F)cc2)nc(-c2c(C(F)(F)F)nc3ccccn23)c1 [Cpd 189] , system Bmi-1 protein, measured EC50 is 10 to 100 nM

Let me check: Cc1nc2ccccc2n1-c1ccc(N)c(Nc2ccc(C(F)(F)F)cc2)n1 [compound 465] , system Bmi-1 protein, measured EC50 is 100 to 3000 nM

Let me check: Cc1nc2ccc(F)cc2n1-c1cncc(Nc2ccc(C(F)(F)F)cc2)n1 [compound 228] , system Bmi-1 protein, measured EC50 is 1 to 10 nM

Let me check: Cc1nn2ccccc2c1-c1cc(C#N)cc(Nc2ccc(C(F)(F)F)cc2)n1 [compound 511] , system Bmi-1 protein, measured EC50 is 10 to 100 nM

Let me check: CS(=O)(=O)c1ccc(Nc2cncc(-c3c(C(F)(F)F)nc4ccccn34)n2)cc1 [compound 68] , system Bmi-1 protein, measured EC50 is 100 to 3000 nM

Let me check: NC(=O)Nc1cc(Nc2ccc(C(F)(F)F)cc2)nc(-c2c(C3CC3)nc3ccc(F)cn23)c1 [compound 369] , system Bmi-1 protein, measured EC50 is 100 to 3000 nM

Let me check: FC(F)(F)c1ccc(Nc2cncc(-c3c(C4CC4)nc4ccccn34)n2)cc1 [compound 129] , system Bmi-1 protein, measured EC50 is 1 to 10 nM

Let me check: COc1ccc(Nc2cccc(-n3c(C)nc4ccccc43)n2)cc1 [Cpd 32] , system Bmi-1 protein, measured EC50 is 1 to 10 nM

Let me check: Cc1noc(C)c1-c1cncc(Nc2ccc(C(F)(F)F)cc2)n1 [compound 127] , system Bmi-1 protein, measured EC50 is 10 to 100 nM
